# System: LC-2-ad
# protocol: relative viability (nuclei count vs DMSO), 5 days (fraction); higher = more cells survive
# reportedConditions: first compound 0.1 µM
Can you tell me relative viability for the items I'm about to list?
Lab note: write the figure by itself, no unit.

Recall and state the measured relative viability for CCN(CC)CCCCNc1ncc2cc(-c3cc(OC)cc(OC)c3)c(NC(=O)NC(C)(C)C)nc2n1 + CS(=O)(=O)N1CCN(Cc2cc3nc(-c4cccc5[nH]ncc45)nc(N4CCOCC4)c3s2)CC1 [Pictilisib] (partner 1 µM) .
0.547

Recall and state the measured relative viability for CCN(CC)CCCCNc1ncc2cc(-c3cc(OC)cc(OC)c3)c(NC(=O)NC(C)(C)C)nc2n1 + Nc1nc2[nH]cc(CCc3ccc(C(=O)N[C@@H](CCC(=O)O)C(=O)O)cc3)c2c(=O)[nH]1 [Pemetrexed] (partner 0.2 µM) .
0.272

Recall and state the measured relative viability for CCN(CC)CCCCNc1ncc2cc(-c3cc(OC)cc(OC)c3)c(NC(=O)NC(C)(C)C)nc2n1 + Cc1nc(Nc2ncc(C(=O)Nc3c(C)cccc3Cl)s2)cc(N2CCN(CCO)CC2)n1 [Dasatinib] (partner 0.075 µM) .
0.73

Recall and state the measured relative viability for CCN(CC)CCCCNc1ncc2cc(-c3cc(OC)cc(OC)c3)c(NC(=O)NC(C)(C)C)nc2n1 + CCNC(=O)c1noc(-c2cc(C(C)C)c(O)cc2O)c1-c1ccc(CN2CCOCC2)cc1 [Luminespib] (partner 0.01 µM) .
1.21

Where do these numbers come from? They come from the supplement of paper PMC10307832.
